# test_system: MMP-8 full-length (Homo sapiens)
# Sequence (P22894 101-467): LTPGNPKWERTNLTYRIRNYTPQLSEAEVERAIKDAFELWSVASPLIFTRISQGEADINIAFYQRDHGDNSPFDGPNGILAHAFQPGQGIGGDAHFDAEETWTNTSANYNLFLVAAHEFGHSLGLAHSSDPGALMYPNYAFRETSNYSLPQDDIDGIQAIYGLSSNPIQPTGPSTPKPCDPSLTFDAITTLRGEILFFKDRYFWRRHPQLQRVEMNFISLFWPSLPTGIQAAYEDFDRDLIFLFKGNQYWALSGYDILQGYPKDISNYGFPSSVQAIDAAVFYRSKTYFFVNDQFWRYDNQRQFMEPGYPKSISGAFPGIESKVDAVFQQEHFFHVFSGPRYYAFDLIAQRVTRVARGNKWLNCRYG
Reported IC50 values for the following molecules.

{"given_smiles": "COc1ccc(CC#Cc2cncc(-c3nnn(Cc4ccc(C(=O)O)cc4)n3)c2)cc1", "IC50": "> 100 µM"}
{"given_smiles": "O=C(O)c1ccc(Cc2nnc(-c3cccc(C#CCc4ccc(F)cc4)c3)s2)cc1", "IC50": "> 100 µM"}

====

# test_system: MMP-13 catalytic domain (Homo sapiens, UniProt P45452)
property: log10 IC50 (log10 of the value in nM)

{"molecule": "COc1ccc(CC#Cc2cncc(-c3nnn(Cc4ccc(C(=O)O)cc4)n3)c2)cc1", "log10 IC50": 0.43}
{"molecule": "COc1ccc(-c2cnc(-c3cccc(-c4nnn(Cc5ccc(C(=O)OC(C)(C)C)cc5)n4)c3)o2)cc1", "log10 IC50": 3.00}
{"molecule": "CS(=O)(=O)c1ccc(Cn2nnc(-c3ccnc(C(=O)NCc4cncnc4)c3)n2)cc1", "log10 IC50": 2.32}
{"molecule": "COc1ccc(-c2cnc(-c3cccc(-c4nnc(-c5ccc(C(=O)O)cc5)o4)c3)o2)cc1", "log10 IC50": 4.69}
{"molecule": "O=C(O)c1ccc(Cn2nnc(-c3cccc(C#CCn4ccc(=O)cc4)c3)n2)cc1", "log10 IC50": 0.81}
{"molecule": "COc1ccc(-c2cnc(-c3cccc(-c4nnn(Cc5ccc(C(=O)O)cc5)n4)c3)o2)cc1", "log10 IC50": 1.26}
{"molecule": "CS(=O)(=O)c1ccc(Cn2nnc(-c3ccnc(C(=O)NCc4ccc(-n5cccn5)cc4)c3)n2)cc1", "log10 IC50": 4.04}
{"molecule": "COc1cccc(Cn2nnc(-c3cccc(C(=O)NCc4ccc(C(=O)O)cc4)c3)n2)c1", "log10 IC50": 1.59}
{"molecule": "CS(=O)(=O)c1ccc(Cn2nnc(-c3ccnc(C(=O)NCc4ccc(Oc5ccccc5)cc4)c3)n2)cc1", "log10 IC50": 2.28}
{"molecule": "O=C(O)c1ccc(-c2nnc(-c3cccc(C#CCc4ccccc4)c3)o2)cc1", "log10 IC50": 3.53}
{"molecule": "COc1ccc(-c2cnc(-c3cccc(-c4nnc(Cc5ccc(C(=O)O)cc5)o4)c3)o2)cc1", "log10 IC50": 2.30}
{"molecule": "O=C(O)C1CCC(Cn2nnc(-c3cccc(C#CCc4ccc(F)cc4)c3)n2)CC1 (stereo not shown)", "log10 IC50": 0.08}
{"molecule": "O=S(=O)(O)c1ccc(Cn2nnc(-c3cccc(C#CCc4ccc(F)cc4)c3)n2)cc1 [Example D1]", "log10 IC50": 0.65}
{"molecule": "NS(=O)(=O)c1ccc(Cn2nnc(-c3cccc(C#CCc4ccccc4)c3)n2)cc1", "log10 IC50": 2.18}
{"molecule": "CC(=O)NCc1ccc(Cn2nnc(-c3cccc(C#CCc4ccccc4)c3)n2)cc1", "log10 IC50": 2.52}
{"molecule": "N#Cc1ccc(Cn2nnc(-c3ccnc(C(=O)NCc4ccncc4)c3)n2)cc1", "log10 IC50": 1.38}
